molecules and their reported cell viability
# Test system: Caco-2
# experiment_summary: cell viability relative to DMSO; higher = less toxic
# condition: 72 h; 1 nM
Write it as a number; the unit % goes unstated.

• COc1ncc2cc(C(=O)Nc3cc(C(=O)NCc4cccc(Cl)c4)ccc3Cl)c(=O)[nH]c2n1 = 111
• CC(C)[C@H]1CC[C@H](C(=O)N[C@H](Cc2ccccc2)C(=O)O)CC1 [nateglinide] = 92.7
• Cc1c(Cl)c(C)[n+]([O-])c(Cl)c1-c1noc(-c2cc(O)c(O)c([N+](=O)[O-])c2)n1 = 87.3

Briefly, cell viability measured for O=C(Nc1ccc2c(O)cc(S(=O)(=O)O)cc2c1)Nc1ccc2c(O)cc(S(=O)(=O)O)cc2c1 : 87

According to the records, this molecule O=C1c2cccc(O)c2C(=O)c2c(O)cc(CO)cc21 displays cell viability of 99.3

cell viability in this record for CC1(C)CN(C(=O)c2ccc(-c3cccc4nc(NC(=O)C5CC5)nn34)cc2)C1 : 99.1

// cell viability lookup, molecule = O=C(O)c1ccc(O)c2ncccc12 , result: 89

Record CN1CCN(C(=O)C2C(C(=O)O)[C@H]3CC[C@@H]2O3)CC1 (stereo partly drawn) . Reported cell viability: 103

# molecule C[N+](C)(C)CC(=O)O ; its cell viability = 99.7

Query O[C@@H](CN1CCC(Cc2ccc(F)cc2)CC1)c1ccc(Cl)cc1 (racemic) yields cell viability of 100

Please fill in: cell viability reported for CCOc1cncc(/C=C/CCNC)c1 = 97.9

Reported cell viability ( COc1cc2c(c(OC)c1OC)-c1c(cc3c(c1OC)OCO3)C[C@H](C)[C@@](C)(O)C2 ) = 104

The recorded cell viability for entry CC(=O)Nc1ccc(NC(=S)NC(=O)c2ccc(C(C)(C)C)cc2)cc1 equals 94.7

// sample COc1ccc([C@@H]2CC(=O)c3c(O)cc(O[C@@H]4O[C@H](CO)[C@@H](O)[C@H](O)[C@H]4O[C@@H]4O[C@@H](C)[C@H](O)[C@@H](O)[C@H]4O)cc3O2)cc1O , its cell viability was 94.5

So, CC1(N2CCC(n3c([C@@H]4CCCNC4)nc4ccccc43)CC2)CCCCCCC1 ? Its cell viability was 111

###

relative viability EC50 reference
# Tested on: U2OS
# experiment_summary: relative viability EC50 (midpoint between 100% and the lowest measured viability); higher = less toxic
# condition: 72 h

- CC(C)(N)c1cc(C(=O)N[C@@H]2CCc3ccc(Oc4ccnc5c4CCC(=O)N5)cc3C2)cc(C(F)(F)F)c1 [ML786]: 1.76 µM
- CC(C)=CCc1c(O)cc(O)c2c(=O)c(O)c(-c3ccc(C(F)(F)F)cc3)oc12 [SNG-1153]: 3.14 µM
- COc1c(N2CCNC(C)C2)c(F)cc2c(=O)c(C(=O)O)cn(C3CC3)c12 (configuration not stated) [gatifloxacin]: > 10 µM

Noted for O=c1[nH]c([C@@H]2CCCN2)nc2c1oc1ccc(Cl)cc12 : its relative viability EC50 reads > 10 µM

Lookup result for Cc1cc(-c2nncc3c(C(C)(C)C)c(OCc4ncnn4C)nn23)no1 [MRK-016] ; measured relative viability EC50: > 10 µM

Form: molecule = O=C(COc1ccc(C(=O)c2ccccc2)cc1)NC1CCN(Cc2ccccc2)CC1 [adiporon] ; relative viability EC50 = > 10 µM

Looking up CCc1cncnc1N1CCN(Cc2nc3cc(C(F)(F)F)ccc3[nH]2)CC1 , I see its relative viability EC50 listed as > 10 µM

The reported value for COc1ncc2cc(C(=O)Nc3cc(C(=O)NCc4cccc(Cl)c4)ccc3Cl)c(=O)[nH]c2n1 [TC-S-7004] in terms of relative viability EC50 is > 10 µM

The recorded relative viability EC50 for entry O=C1c2c(O)cccc2Cc2cccc(O)c21 [anthralin] equals > 10 µM

Noted for CC(C)(C)c1ccc(C(=O)Nc2cn3cc(-n4ccnc4)ccc3n2)cc1 [TC-ASK-10] : its relative viability EC50 reads > 10 µM

Per the records, this molecule ( CN(C)C(=O)[C@H](O)[C@H](Cc1ccccc1)NC(=O)c1cc2cc(Cl)ccc2[nH]1 ) has relative viability EC50 equal to > 10 µM

Given item COc1ccc(-c2ccc3ncc4c(c3c2)n(-c2ccc(N3CCNCC3)c(C(F)(F)F)c2)c(=O)n4C)cn1 [BGT226] , the value recorded as its relative viability EC50 is 0.0293 µM

Briefly, relative viability EC50 measured for N=C(N)NCCC[C@H](NC(=O)[C@@H]1CCCN1C(=O)[C@@H]1CSSC[C@H](N)C(=O)N[C@@H](Cc2ccc(O)cc2)C(=O)N[C@@H](Cc2ccccc2)C(=O)N[C@@H](CCC(N)=O)C(=O)N[C@@H](CC(N)=O)C(=O)N1)C(=O)NCC(N)=O [vasopressin] : > 10 µM

According to the records, this molecule CS(=O)(=O)CCNCc1nc(-c2ccc3ncnc(Nc4ccc(OCc5cccc(F)c5)c(Cl)c4)c3c2)cs1 displays relative viability EC50 of > 10 µM

###

Items are presented alongside their recorded cell viability.
# Tested on: Caco-2
# experiment_summary: cell viability relative to DMSO; higher = less toxic
# condition: 72 h; 1000 nM
Hi! Could you send only the number? It should be in %, unit omitted.

Recorded cell viability (molecule COc1ncc2cc(C(=O)Nc3cc(C(=O)NCc4cccc(Cl)c4)ccc3Cl)c(=O)[nH]c2n1 ): 98.6

// field: cell viability; key: O=c1[nH]c(=O)n([C@H]2C[C@H](O)[C@@H](CO)O2)cc1F ; value = 29.9

Lookup result for CC1(C)OC2(C)C(O)CC1CC2O (centres undefined) ; measured cell viability: 95

Form field cell viability, entry COc1cc(NC(=O)c2ccccn2)ccc1Cl : 90.8

Data point: C[N+]1(C)CCC(OC(=O)C(c2ccccc2)c2ccccc2)CC1 ; cell viability = 102

cell viability reading for O=C(O)c1ccc(O)c2ncccc12 : 104

Lab note: Cc1cc(-c2nncc3c(C(C)(C)C)c(OCc4ncnn4C)nn23)no1 gave cell viability of 89

Documented cell viability of C[C@H](O)[C@H](O)[C@H]1CNc2nc(N)[nH]c(=O)c2N1 : 107

For C[C@@H]1C[C@H]2[C@@H]3CCC4=CC(=O)C=C[C@]4(C)[C@@]3(F)[C@@H](O)C[C@]2(C)[C@H]1C(=O)CO the molecule record lists cell viability as 95.2

###

# Tested on: HepG2
# experiment_summary: cell viability relative to DMSO; higher = less toxic
# condition: 72 h; 1 nM
measured_endpoint: cell viability
Answer with the figure and its unit, nothing else.

- CC(C)C[C@H](NC(=O)[C@@H](O)[C@H](N)Cc1ccccc1)C(=O)O: 105%
- CN1CCc2c(c3ccccc3n2Cc2ccccc2)C1 [mebhydrolin]: 94.3%
- O=C(/C=C/c1ccc(O)c(O)c1)c1ccc(O)cc1O: 99.3%
- COc1nc(N)nc2c1ncn2[C@@H]1O[C@H](CO)[C@@H](O)[C@@H]1O: 105%

Here is another molecule to look at.
# cell viability of CCCCCCCCC(=O)NCc1cc(OC)c(O)cc1I [6-iodo-nordihydrocapsaicin] = 96.6%

###

# Tested on: Calu-3
# experiment_summary: cell viability relative to DMSO; higher = less toxic
# condition: 72 h; 100 nM
measured_endpoint: cell viability (%)
Your answer is read as %, so omit the unit and give the number.

# annotated cases, reported cell viability shown
• CCCCCCCCCCC[C@@H](C[C@@H]1OC(=O)[C@H]1CCCCCC)OC(=O)[C@H](CC(C)C)NC=O [orlistat] = 110
• O=C(O)CC(S)C(=O)O (stereo unspecified) [mercaptosuccinic-acid] = 93.5
• N#Cc1ccccc1-c1cc(-c2ccccn2)cn(-c2ccccc2)c1=O [Perampanel] = 96.5

cell viability reading for CC(=O)N(C)c1cc(-c2ccnc3c(C(=O)c4cccs4)cnn23)ccc1F [lorediplon] : 98.6

Looking up Cc1cc(CN)cc(C)c1NC(=O)c1ccc(-c2cc(Cl)ccc2Cl)o1 , I found its cell viability recorded as 104

Sample Cc1ccc(-c2nn(C(C)(C)C)c3ncnc(N)c23)cc1 [PP-1] ; cell viability observed: 94

Note to self: cell viability recorded for Nc1nc2ccc(OC(F)(F)F)cc2s1 [riluzole] was 109

Entry under test: C[N+](C)(C)CC(=O)O [betaine] . Its cell viability was 106

Quick note, cell viability for C[C@@H](CN1CCC(n2c(=O)[nH]c3cc(Cl)ccc32)CC1)NC(=O)c1ccc2ccccc2c1 landed at 96.2

Lookup result for Fc1ccccc1CNCc1ccc(-c2ccnc3[nH]ccc23)cc1 [OXA-06] ; measured cell viability: 100

cell viability recorded for this compound, Clc1ccc(C(OCCN2CCCCC2)c2ccccc2)cc1 (stereo unspecified) [cloperastine] , is 129

Entry N=C(N)NCCC[C@H](N)C(=O)O [L-arginine] ; cell viability = 104

The compound identified as Cc1noc(C)c1-c1ccc(-c2cc(C(N)=O)c(NC(N)=O)s2)c(O[C@H]2CCNC2)c1 [AZD3264] registered its cell viability at 103

Sure, the documented cell viability for CC(C)=CCc1c(O)cc(O)c2c(=O)c(O)c(-c3ccc(C(F)(F)F)cc3)oc12 [SNG-1153] is 108

// recorded cell viability for O=S(=O)(O)c1ccc2[nH]c(-c3ccccc3)nc2c1 [phenylbenzimidazole-sulfonic-acid] : 106
